- MEASURED_TARGET: flavodoxin of H. pylori (Helicobacter pylori, UniProt O25776)
- Construct: made in house; host or cells: E. coli BL21 (pET28a)
- Sequence (O25776 whole entry): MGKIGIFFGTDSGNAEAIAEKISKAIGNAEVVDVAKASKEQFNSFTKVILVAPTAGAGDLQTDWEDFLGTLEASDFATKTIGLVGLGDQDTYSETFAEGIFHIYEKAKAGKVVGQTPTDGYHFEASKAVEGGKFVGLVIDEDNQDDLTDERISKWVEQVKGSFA
- EXPERIMENTAL_PROTOCOL: Isothermal titration calorimetry (ITC) binding to flavodoxin
- CONDITION_LABEL: 50 mM EPPS buffer, pH 9, 7% DMSO; protein around 20 μM; read-out: affinity for flavodoxin (ITC)
ATTRIBUTE_MEASURED: Kd
Your reply should be a number followed by the unit it is expressed in.

**Query** Kd for O=[N+]([O-])C1=Cc2cc(Cl)cc(Cl)c2OC1c1ccc(F)cc1 (stereo not shown) ?
**Result** 1600 nM
